target: human glucagon receptor (human) (UniProt P47871); assay: cell-based or functional assay
Sequence (P47871 26-477): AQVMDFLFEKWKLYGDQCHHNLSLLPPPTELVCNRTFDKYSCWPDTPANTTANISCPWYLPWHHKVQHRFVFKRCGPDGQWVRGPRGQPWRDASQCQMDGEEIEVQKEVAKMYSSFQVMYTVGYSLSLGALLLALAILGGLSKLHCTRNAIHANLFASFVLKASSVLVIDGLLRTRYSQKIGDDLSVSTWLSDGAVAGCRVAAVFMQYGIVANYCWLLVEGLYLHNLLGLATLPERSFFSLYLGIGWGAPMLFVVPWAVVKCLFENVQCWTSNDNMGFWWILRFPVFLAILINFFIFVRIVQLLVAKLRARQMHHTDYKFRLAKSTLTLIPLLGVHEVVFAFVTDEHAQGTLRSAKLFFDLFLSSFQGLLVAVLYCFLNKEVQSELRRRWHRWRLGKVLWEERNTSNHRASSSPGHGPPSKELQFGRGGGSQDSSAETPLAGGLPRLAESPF
Starred links: 1 amine or outer side, 2 acyl side, 3 side chain; linkers in the order of their positions; H or OH if unused. Non-standard residues stand in square brackets, D forms with d. Groups on a side chain read outwards from the residue. No end group written: not given here. *: point of attachment. C18 diacid = O=C(O)CCCCCCCCCCCCCCCCC(=O)*; γGlu = O=C(O)[C@H](CCC(=O)[*:2])N[*:1]; αMe4Pal = C[C@](N)(Cc1ccncc1)C(=O)O; 4Pal = N[C@@H](Cc1ccncc1)C(=O)O; αMeL = CC(C)C[C@](C)(N)C(=O)O; Orn = NCCC[C@H](N)C(=O)O; Dab = NCC[C@H](N)C(=O)O; Aib = CC(C)(N)C(=O)O
endpoint-name: cAMP Rel EC50 (1% HSA) (nM)
Reply numerically in nM, unit not repeated.

Kindly note the recorded cAMP Rel EC50 (1% HSA) for YXQGTFTSDXSQXLDXKAQXAFIEXLIEGGPSSGAPPPSGSEE (Aib, 4Pal, αMeL, Orn, Me4Pal, αMeY; acylated Lys; C-terminal amide; synthetic construct; SITE 2: note = 2-Aminoisobutyric Acid; SITE 10: note = 3-(4-Pyridyl)-L-alanine; SITE 13: note = alpha-methyl-leucine; SITE 16: note = L-ornithine; SITE 17: note = Lysine is chemically modified through conjugation of the epsilon-amino group of the Lysine side chain with D-Glutami) [Example 1070] , which is 1940

Kindly note the recorded cAMP Rel EC50 (1% HSA) for YXQGTXTSDXSILLDKKAQXAFIEYLXEGGPSSGAPPPSGTGE (synthetic construct; SITE 2: note = 2-Aminoisobutyric Acid; SITE 6: note = alpha-methyl-2-fluoro-L-phenylalanine; SITE 10: note = 3-(4-Pyridyl)-L-alanine; SITE 17: note = Lysine is chemically modified through conjugation of the epsilon-amino group of the Lysine side chain with (gamma-Glu)2-CO-(CH2)1) [Example 661] , which is 160

Kindly note the recorded cAMP Rel EC50 (1% HSA) for YXQGTFTSDXSXXLDXKAQXAFIEYLIAGGPSSGAPPPSGSEE (acylated Lys, C-terminal amide, non-natural residues; synthetic construct; SITE 2: note = 2-Aminoisobutyric Acid; SITE 10: note = 3-(4-Pyridyl)-L-alanine; SITE 12: note = L-ornithine; SITE 13: note = alpha-methyl-leucine; SITE 16: note = L-ornithine; SITE 17: note = Lysine is chemically modified through conjugation of the epsilon-amino group of the Lys) [Example 1059] , which is 748

Kindly note the recorded cAMP Rel EC50 (1% HSA) for YXQGTFTSDXSQXLDKKAQXAFIEYLIAGGPSSGAPPPSGE (Aib, 4Pal, αMeL, Me4Pal; acylated K; C-terminal amide; synthetic construct; SITE 2: note = 2-Aminoisobutyric Acid; SITE 10: note = 3-(4-Pyridyl)-L-alanine; SITE 13: note = alpha-methyl-leucine; SITE 17: note = Lysine is chemically modified through conjugation of the epsilon-amino group of the Lysine side chain with (Glu)-(gamma-Glu)-CO-(CH2)16-CO2H; SIT) [Example 1086] , which is 3140

Kindly note the recorded cAMP Rel EC50 (1% HSA) for Y[Aib]QGTFTSD[4Pal]S[Dab][αMeL]LD[Orn]K([γGlu-γGlu-C18 diacid])AQ[αMe4Pal]AFIE[αMe4Pal]LLAGGPSSGAPPPEGSEE-NH2 [Example 1055] , which is 450

Kindly note the recorded cAMP Rel EC50 (1% HSA) for YXQGTXTSDXXIXLDXKAQXEFIEXLIEGGPSSGEPPPSGE (not fully specified; non-natural residues; acylated Lys; C-terminal amide; synthetic construct; SITE 2: note = 2-Aminoisobutyric Acid; SITE 6: note = alpha-methyl-2-fluoro-L-phenylalanine; SITE 10: note = 3-(4-Pyridyl)-L-alanine; SITE 11: note = alpha-methyl-L-serine; SITE 13: note = alpha-methyl-leucine; SITE 16: note = L-ornithine; SITE 17: note = Lysine is chemically mo) [Example 1151] , which is 206

Kindly note the recorded cAMP Rel EC50 (1% HSA) for YXQGTFTSDXSQXLDKKAQXAFIEXLIEGGPSSGAPPPSGS (Aib, 4Pal, Me4Pal, alpha-methyl-Leu, lipidated Lys, amide; synthetic construct; SITE 2: note = 2-Aminoisobutyric Acid; SITE 10: note = 3-(4-Pyridyl)-L-alanine; SITE 13: note = alpha-methyl-leucine; SITE 17: note = Lysine is chemically modified through conjugation of the epsilon-amino group of the Lysine side chain with (2-[2-(2-Amino-ethoxy)-ethoxy]-acetyl)) [Example 948] , which is 537

Kindly note the recorded cAMP Rel EC50 (1% HSA) for YXQGTXTSDXXIXLDXKAQXNFIEXLQEGGPSSGEPPPEGTE (synthetic construct; SITE 2: note = 2-Aminoisobutyric Acid; SITE 6: note = alpha-methyl-2-fluoro-L-phenylalanine; SITE 10: note = 3-(4-Pyridyl)-L-alanine; SITE 11: note = alpha-methyl-L-serine; SITE 13: note = alpha-methyl-leucine; SITE 16: note = L-ornithine; SITE 17: note = Lysine is chemically mo) [Example 526] , which is 530

Kindly note the recorded cAMP Rel EC50 (1% HSA) for YXQGTFTSDXSKXLDKKAQXAFIEXLIEXGPSSGAPPPSGS (Aib, 4Pal, αMeL, Me4Pal; acylated Lys; C-terminal amide; synthetic construct; SITE 2: note = 2-Aminoisobutyric Acid; SITE 10: note = 3-(4-Pyridyl)-L-alanine; SITE 13: note = alpha-methyl-leucine; SITE 17: note = Lysine is chemically modified through conjugation of the epsilon-amino group of the Lysine side chain with (2-[2-(2-Amino-ethoxy)-ethoxy]-acetyl)) [Example 914] , which is 983

Kindly note the recorded cAMP Rel EC50 (1% HSA) for YXQGTFTSDXSQXLDKKAQXAFIEYLIEXGPSSGAPPPSGSEE (acylated lysine γGlu-C18 diacid; non-natural residues; C-terminal amide; synthetic construct; SITE 2: note = 2-Aminoisobutyric Acid; SITE 10: note = 3-(4-Pyridyl)-L-alanine; SITE 13: note = alpha-methyl-leucine; SITE 17: note = Lysine is chemically modified through conjugation of the epsilon-amino group of the Lysine side chain with D-Glutamic acid-(gamma-Glu)-CO-(CH2)16) [Example 928] , which is 1090

Kindly note the recorded cAMP Rel EC50 (1% HSA) for YXQGTFTSDXSQXLDKKAQXAFIEYLIAGGPSSGAPPPSGEEE (acylated Lys, C-terminal amide, non-natural residues; synthetic construct; SITE 2: note = 2-Aminoisobutyric Acid; SITE 10: note = 3-(4-Pyridyl)-L-alanine; SITE 13: note = alpha-methyl-leucine; SITE 17: note = Lysine is chemically modified through conjugation of the epsilon-amino group of the Lysine side chain with (Glu)2-(gamma-Glu)-CO-(CH2)16-CO2H; SI) [Example 1090] , which is 2010

Kindly note the recorded cAMP Rel EC50 (1% HSA) for YXQGTFTSDXSQXLDKKAQXAFIEYLIEXGPSSGAPPPSGS (non-natural residues; C18 diacid-e-γGlu-e on Lys; C-terminal amide; synthetic construct; SITE 2: note = 2-Aminoisobutyric Acid; SITE 10: note = 3-(4-Pyridyl)-L-alanine; SITE 13: note = alpha-methyl-leucine; SITE 17: note = Lysine is chemically modified through conjugation of the epsilon-amino group of the Lysine side chain with D-Glutamic acid-(gamma-Glu)-D-Glutamic) [Example 923] , which is 1840

Kindly note the recorded cAMP Rel EC50 (1% HSA) for YXQGTXTSDXXIXLDXKAQXEFIEXLIEGGPSSGEPPPEGE (non-natural residues; AEEA-γGlu-C18 diacid on Lys; C-terminal amide; synthetic construct; SITE 2: note = 2-Aminoisobutyric Acid; SITE 6: note = alpha-methyl-2-fluoro-L-phenylalanine; SITE 10: note = 3-(4-Pyridyl)-L-alanine; SITE 11: note = alpha-methyl-L-serine; SITE 13: note = alpha-methyl-leucine; SITE 16: note = L-ornithine; SITE 17: note = Lysine is chemically mo) [Example 1149] , which is 184

The measurements presented in this section are drawn from patent US20240270821A1.
